target: ΔF508-CFTR (Homo sapiens, UniProt P13569, DEL508-508); construct: expressed in transfected cells; experiment: Membrane potential optical (FRET/VIPR) assay, identification of correction compounds; format: cell-based; details: Table 3; assay not given; read-out: % Activity / % Efficacy (relative efficacy)
Sequence (P13569 with tags, fused parts or gaps DEL508-508): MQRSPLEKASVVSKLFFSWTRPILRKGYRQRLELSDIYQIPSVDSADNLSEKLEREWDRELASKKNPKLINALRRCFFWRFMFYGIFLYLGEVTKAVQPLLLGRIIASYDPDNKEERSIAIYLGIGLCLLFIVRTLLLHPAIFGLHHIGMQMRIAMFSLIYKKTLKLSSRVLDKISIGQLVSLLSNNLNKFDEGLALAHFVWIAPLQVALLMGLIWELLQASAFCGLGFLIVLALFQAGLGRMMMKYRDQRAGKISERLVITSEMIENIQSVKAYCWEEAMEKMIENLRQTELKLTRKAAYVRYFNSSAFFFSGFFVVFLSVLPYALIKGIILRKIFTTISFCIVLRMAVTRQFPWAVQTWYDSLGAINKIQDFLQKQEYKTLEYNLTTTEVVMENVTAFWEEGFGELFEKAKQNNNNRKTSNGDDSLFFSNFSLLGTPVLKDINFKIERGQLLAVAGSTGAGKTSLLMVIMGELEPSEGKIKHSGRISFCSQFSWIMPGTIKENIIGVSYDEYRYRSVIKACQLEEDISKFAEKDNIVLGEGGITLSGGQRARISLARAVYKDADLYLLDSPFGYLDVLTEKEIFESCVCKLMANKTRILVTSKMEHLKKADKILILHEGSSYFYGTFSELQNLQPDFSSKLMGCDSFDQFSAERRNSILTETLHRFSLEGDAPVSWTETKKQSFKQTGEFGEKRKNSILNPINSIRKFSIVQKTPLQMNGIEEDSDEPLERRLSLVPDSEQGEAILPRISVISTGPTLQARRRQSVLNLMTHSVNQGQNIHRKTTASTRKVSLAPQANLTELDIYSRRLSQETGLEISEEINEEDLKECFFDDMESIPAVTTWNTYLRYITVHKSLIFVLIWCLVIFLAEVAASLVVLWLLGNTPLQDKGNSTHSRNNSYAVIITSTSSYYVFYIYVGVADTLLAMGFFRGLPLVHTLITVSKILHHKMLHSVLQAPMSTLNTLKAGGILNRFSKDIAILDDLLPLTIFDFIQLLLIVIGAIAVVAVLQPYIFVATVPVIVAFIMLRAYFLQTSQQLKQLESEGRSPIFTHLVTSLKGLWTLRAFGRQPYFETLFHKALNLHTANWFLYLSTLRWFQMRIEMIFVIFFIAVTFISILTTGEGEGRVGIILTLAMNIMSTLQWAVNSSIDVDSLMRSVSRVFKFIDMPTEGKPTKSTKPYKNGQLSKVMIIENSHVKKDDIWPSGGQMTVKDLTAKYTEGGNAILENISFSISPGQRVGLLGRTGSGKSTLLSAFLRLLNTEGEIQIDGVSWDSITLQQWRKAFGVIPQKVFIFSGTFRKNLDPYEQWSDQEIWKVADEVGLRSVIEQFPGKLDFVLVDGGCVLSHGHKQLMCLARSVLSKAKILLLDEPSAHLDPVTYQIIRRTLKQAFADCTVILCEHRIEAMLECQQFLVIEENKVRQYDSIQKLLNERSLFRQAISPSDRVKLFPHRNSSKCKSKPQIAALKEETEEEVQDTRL
recorded-endpoint: Emax

[[record]]
molecule = "COc1ccccc1C(c1cnc(NC(=O)C2(c3ccc4c(c3)OCO4)CC2)s1)N1CCC(O)CC1 (stereo not shown)"
recorded_endpoint = "Emax"
result = "> 100%"

[[record]]
molecule = "CS(=O)(=O)c1ccc(C2(C(=O)Nc3ncc(Cc4ccccc4Cl)s3)CC2)cc1"
recorded_endpoint = "Emax"
result = "25 to 100%"

[[record]]
molecule = "COCC1CCCN1C(c1ccccc1)c1cnc(NC(=O)C2(c3ccc4c(c3)OCO4)CC2)s1 (stereo not shown)"
recorded_endpoint = "Emax"
result = "> 100%"

[[record]]
molecule = "CCOc1ccccc1C(c1cnc(NC(=O)C2(c3ccc4c(c3)OCO4)CC2)s1)N1CCCC1 (stereo not shown)"
recorded_endpoint = "Emax"
result = "25 to 100%"

[[record]]
molecule = "CC(C)(C)c1cc(NC(=O)C2(c3ccc4c(c3)OCO4)CC2)c(C(N)=O)s1"
recorded_endpoint = "Emax"
result = "25 to 100%"

[[record]]
molecule = "O=C1NOC[C@@H]1NC(c1cnc(NC(=O)C2(c3ccc4c(c3)OCO4)CC2)s1)c1ccccc1Cl (stereo partly shown)"
recorded_endpoint = "Emax"
result = "25 to 100%"

[[record]]
molecule = "O=C(Nc1ncc(C(c2ccc(Cl)cc2Cl)N2CC[C@@H](O)C2)s1)C1(c2ccc3c(c2)OCO3)CC1 (stereo partly shown)"
recorded_endpoint = "Emax"
result = "> 100%"

[[record]]
molecule = "CCN(CC)C(c1ccc(S(C)(=O)=O)cc1)c1cnc(NC(=O)C2(c3ccc4c(c3)OCO4)CC2)s1 (stereo not shown)"
recorded_endpoint = "Emax"
result = "25 to 100%"

[[record]]
molecule = "O=C(Nc1ncc(C(c2ccccc2Cl)N2CC[C@@H](O)C2)s1)C1(c2ccc(Cl)cc2)CC1 (stereo partly shown)"
recorded_endpoint = "Emax"
result = "> 100%"

[[record]]
molecule = "O=C(Nc1ncc(C(c2ccccc2Cl)N2CC[C@@H](O)C2)s1)C1(c2cccc(F)c2)CC1 (stereo partly shown)"
recorded_endpoint = "Emax"
result = "> 100%"

[[record]]
molecule = "O=C(Nc1ncc(C(c2ccccc2Cl)N2CC[C@@H](O)C2)s1)C1(c2ccc(F)cc2)CC1 (stereo partly shown)"
recorded_endpoint = "Emax"
result = "> 100%"

[[record]]
molecule = "COC[C@@H]1CCCN1C(c1cnc(NC(=O)C2(c3ccc4c(c3)OCO4)CC2)s1)C(C)(C)C (stereo partly shown)"
recorded_endpoint = "Emax"
result = "> 100%"

[[record]]
molecule = "O=C(Nc1nnc(-c2ccccc2)s1)C1(c2ccc3c(c2)OCO3)CC1"
recorded_endpoint = "Emax"
result = "25 to 100%"

[[record]]
molecule = "COc1cccc(C(c2cnc(NC(=O)C3(c4ccc5c(c4)OCO5)CC3)s2)N2CCOCC2)c1 (stereo not shown)"
recorded_endpoint = "Emax"
result = "> 100%"

[[record]]
molecule = "O=C(Nc1ncc(C(Cc2ccccc2Cl)N2CCOCC2)s1)C1(c2ccc3c(c2)OCO3)CC1 (stereo not shown)"
recorded_endpoint = "Emax"
result = "> 100%"

[[record]]
molecule = "Cc1ccccc1C(N[C@@H](CO)CC(C)C)c1cnc(NC(=O)C2(c3ccc4c(c3)OCO4)CC2)s1 (stereo partly shown)"
recorded_endpoint = "Emax"
result = "> 100%"

[[record]]
molecule = "O=C(Nc1ncc(C(OCC2CCOC2)c2ccccc2Cl)s1)C1(c2ccc3c(c2)OCO3)CC1 (stereo not shown)"
recorded_endpoint = "Emax"
result = "> 100%"

[[record]]
molecule = "C=CCOC(c1cnc(NC(=O)C2(c3ccc4c(c3)OCO4)CC2)s1)c1ccccc1Cl (stereo not shown)"
recorded_endpoint = "Emax"
result = "> 100%"

[[record]]
molecule = "O=C(Nc1ncc(C(c2ccccc2Cl)N2CC[C@@H](O)C2)s1)C1(c2ccccc2F)CC1 (stereo partly shown)"
recorded_endpoint = "Emax"
result = "> 100%"

[[record]]
molecule = "CCC[C@H](CO)NC(c1cnc(NC(=O)C2(c3ccc4c(c3)OCO4)CC2)s1)c1ccccc1Cl (stereo partly shown)"
recorded_endpoint = "Emax"
result = "> 100%"

[[record]]
molecule = "COc1ccc(C(c2cnc(NC(=O)C3(c4ccc5c(c4)OCO5)CC3)s2)N2CC[C@@H](O)C2)cc1 (stereo partly shown)"
recorded_endpoint = "Emax"
result = "> 100%"

[[record]]
molecule = "CCN(CC)C(c1cnc(NC(=O)C2(c3ccc4c(c3)OCO4)CC2)s1)c1ccccc1OC (stereo not shown)"
recorded_endpoint = "Emax"
result = "> 100%"

[[record]]
molecule = "O=C(Nc1ncc(C(c2cccc(Cl)c2)N2CC[C@@H](O)C2)s1)C1(c2ccc3c(c2)OCO3)CC1 (stereo partly shown)"
recorded_endpoint = "Emax"
result = "> 100%"

[[record]]
molecule = "CCNC(c1cnc(NC(=O)C2(c3ccc4c(c3)OCO4)CC2)s1)c1ccccc1Cl (stereo not shown)"
recorded_endpoint = "Emax"
result = "> 100%"

[[record]]
molecule = "COc1ccc(C2(C(=O)Nc3ncc(Cc4ccccc4OC)o3)CC2)cc1"
recorded_endpoint = "Emax"
result = "> 100%"

[[record]]
molecule = "O=C(Nc1ncc(CN2CC[C@H](O)C2)s1)C1(c2ccc3c(c2)OCO3)CC1"
recorded_endpoint = "Emax"
result = "> 100%"

[[record]]
molecule = "CC(C)(C)C(c1cnc(NC(=O)C2(c3ccc4c(c3)OCO4)CC2)s1)N1CC[C@@H](O)C1 (stereo partly shown)"
recorded_endpoint = "Emax"
result = "> 100%"

[[record]]
molecule = "CCC(c1cnc(NC(=O)C2(c3ccc4c(c3)OCO4)CC2)s1)N1CCCC1 (stereo not shown)"
recorded_endpoint = "Emax"
result = "25 to 100%"

[[record]]
molecule = "CC(=O)NCCNC(c1cnc(NC(=O)C2(c3ccc4c(c3)OCO4)CC2)s1)c1ccccc1Cl (stereo not shown)"
recorded_endpoint = "Emax"
result = "> 100%"

[[record]]
molecule = "O=C(Nc1ncc(C(c2ccccc2Cl)N2CCC(O)C2)s1)C1(c2ccc3c(c2)OCO3)CC1 (stereo not shown)"
recorded_endpoint = "Emax"
result = "> 100%"

[[record]]
molecule = "CN(C1CCCCC1)C(c1cnc(NC(=O)C2(c3ccc4c(c3)OCO4)CC2)s1)c1ccccc1Cl (stereo not shown)"
recorded_endpoint = "Emax"
result = "> 100%"


---

biological target: ΔF508-CFTR (Homo sapiens, UniProt P13569, DEL508-508); assay: Membrane potential optical (FRET/VIPR) assay, identification of correction compounds; details: Table 3; assay not given
recorded-endpoint: EC50

[[record]]
molecule = "C=CCOC(c1cnc(NC(=O)C2(c3ccc4c(c3)OCO4)CC2)s1)c1ccccc1Cl (centres unmarked) [Example 251]"
recorded_endpoint = "EC50"
result = "< 10 µM"

[[record]]
molecule = "COc1ccc(C(c2cnc(NC(=O)C3(c4ccc5c(c4)OCO5)CC3)s2)N2CCCC2)cc1 (centres unmarked) [Example 362]"
recorded_endpoint = "EC50"
result = "10 to 25 µM"

[[record]]
molecule = "CCC(c1cnc(NC(=O)C2(c3ccc4c(c3)OCO4)CC2)s1)N1CC[C@@H](O)C1 (some centres unmarked) [Example 402]"
recorded_endpoint = "EC50"
result = "10 to 25 µM"

[[record]]
molecule = "COc1ccccc1Cc1cnc(NC(=O)C2(c3ccc(SC)cc3)CC2)s1 [Example 173]"
recorded_endpoint = "EC50"
result = "< 10 µM"

[[record]]
molecule = "O=C(Nc1ncc(C(c2ccccc2Cl)N2CC[C@@H](O)C2)s1)C1(c2cccc(C(F)(F)F)c2)CC1 (some centres unmarked) [Example 441]"
recorded_endpoint = "EC50"
result = "< 10 µM"

[[record]]
molecule = "COC[C@H]1CCCN1C(Cc1ccccc1Cl)c1cnc(NC(=O)C2(c3ccc4c(c3)OCO4)CC2)s1 (some centres unmarked) [Example 455]"
recorded_endpoint = "EC50"
result = "< 10 µM"

[[record]]
molecule = "CS(=O)(=O)Nc1cccc(C2(C(=O)Nc3ncc(Cc4ccccc4Cl)s3)CC2)c1 [Example 308]"
recorded_endpoint = "EC50"
result = "< 10 µM"

[[record]]
molecule = "CC(=O)NCCNC(c1cnc(NC(=O)C2(c3ccc4c(c3)OCO4)CC2)s1)c1ccccc1Cl (centres unmarked) [Example 436]"
recorded_endpoint = "EC50"
result = "< 10 µM"

[[record]]
molecule = "CCN(CC)C(c1cnc(NC(=O)C2(c3ccc4c(c3)OCO4)CC2)s1)C(C)(C)C (centres unmarked) [Example 393]"
recorded_endpoint = "EC50"
result = "10 to 25 µM"

[[record]]
molecule = "COC(c1cnc(NC(=O)C2(c3ccc4c(c3)OCO4)CC2)s1)c1ccccc1Cl (centres unmarked) [Example 260]"
recorded_endpoint = "EC50"
result = "< 10 µM"

[[record]]
molecule = "O=C(Nc1ncc(C(c2ccccc2)N2CCCCC2)s1)C1(c2ccc3c(c2)OCO3)CC1 (centres unmarked) [Example 371]"
recorded_endpoint = "EC50"
result = "< 10 µM"

[[record]]
molecule = "Cc1nn(-c2ccccc2)c(NC(=O)C2(c3ccc4c(c3)OCO4)CC2)c1-c1ccccc1 [Example 291]"
recorded_endpoint = "EC50"
result = "10 to 25 µM"

[[record]]
molecule = "O=C(Nc1ncc(Cc2ccncc2Cl)s1)C1(c2ccc3c(c2)OCO3)CC1 [Example 265]"
recorded_endpoint = "EC50"
result = "< 10 µM"

[[record]]
molecule = "CCOc1ccccc1C(N[C@@H](CO)C(C)C)c1cnc(NC(=O)C2(c3ccc4c(c3)OCO4)CC2)s1 (some centres unmarked) [Example 478]"
recorded_endpoint = "EC50"
result = "< 10 µM"

[[record]]
molecule = "O=C(Nc1ncc(Cc2ccccc2Cl)s1)C1(c2ccccc2F)CCCCC1 [Example 306]"
recorded_endpoint = "EC50"
result = "< 10 µM"

[[record]]
molecule = "CC(C)(C)C(c1cnc(NC(=O)C2(c3ccc4c(c3)OCO4)CC2)s1)N1CC[C@@H](O)C1 (some centres unmarked) [Example 390]"
recorded_endpoint = "EC50"
result = "10 to 25 µM"

[[record]]
molecule = "O=C(Nc1ncc(C(NCCC2=CCCCC2)c2ccccc2Cl)s1)C1(c2ccc3c(c2)OCO3)CC1 (centres unmarked) [Example 427]"
recorded_endpoint = "EC50"
result = "< 10 µM"

[[record]]
molecule = "COCC1CCCN1C(c1ccc(Cl)cc1)c1cnc(NC(=O)C2(c3ccc4c(c3)OCO4)CC2)s1 (centres unmarked) [Example 331]"
recorded_endpoint = "EC50"
result = "< 10 µM"

[[record]]
molecule = "O=C(Nc1ncc(C(OCCCCO)c2ccccc2Cl)s1)C1(c2ccc3c(c2)OCO3)CC1 (centres unmarked) [Example 275]"
recorded_endpoint = "EC50"
result = "< 10 µM"

[[record]]
molecule = "CS(=O)(=O)c1ccc(C(c2cnc(NC(=O)C3(c4ccc5c(c4)OCO5)CC3)s2)N2CC[C@@H](O)C2)cc1 (some centres unmarked) [Example 378]"
recorded_endpoint = "EC50"
result = "10 to 25 µM"

[[record]]
molecule = "COc1ccc(C2(C(=O)Nc3ncc(Cc4cccnc4OC)s3)CC2)cc1 [Example 176]"
recorded_endpoint = "EC50"
result = "< 10 µM"

[[record]]
molecule = "O=C(Nc1ncc(C(c2ccccc2Cl)N2CCC[C@@H]2CO)s1)C1(c2ccc3c(c2)OCO3)CC1 (some centres unmarked) [Example 229]"
recorded_endpoint = "EC50"
result = "< 10 µM"

[[record]]
molecule = "O=C(Nc1ncc(Cc2cccc(F)c2Cl)s1)C1(c2ccc3c(c2)OCO3)CC1 [Example 159]"
recorded_endpoint = "EC50"
result = "< 10 µM"

[[record]]
molecule = "COc1ccccc1-c1csc(NC(=O)C2(c3ccc4c(c3)OCO4)CC2)n1 [Example 112]"
recorded_endpoint = "EC50"
result = "10 to 25 µM"

[[record]]
molecule = "C[C@@H](O)CNC(c1cnc(NC(=O)C2(c3ccc4c(c3)OCO4)CC2)s1)c1ccccc1Cl (some centres unmarked) [Example 487]"
recorded_endpoint = "EC50"
result = "< 10 µM"

[[record]]
molecule = "Cc1ccccc1Cc1cnc(NC(=O)C2(c3ccc4c(c3)OCO4)CC2)s1 [Example 281]"
recorded_endpoint = "EC50"
result = "< 10 µM"

[[record]]
molecule = "O=C(Nc1ncc(C(NC2CCCCC2)c2ccccc2Cl)s1)C1(c2ccc3c(c2)OCO3)CC1 (centres unmarked) [Example 411]"
recorded_endpoint = "EC50"
result = "< 10 µM"

[[record]]
molecule = "O=C(Nc1ncc(C(c2ccccc2Cl)N2CCOCC2)s1)C1(c2ccc3c(c2)OCO3)CC1 (centres unmarked) [Example 203]"
recorded_endpoint = "EC50"
result = "< 10 µM"

[[record]]
molecule = "O=C(O)c1ccccc1Sc1cnc(NC(=O)C2(c3ccc4c(c3)OCO4)CC2)s1 [Example 101]"
recorded_endpoint = "EC50"
result = "< 10 µM"

[[record]]
molecule = "CC(C)(C)C(c1cnc(NC(=O)C2(c3ccc4c(c3)OCO4)CC2)s1)N1CCC(O)CC1 (centres unmarked) [Example 392]"
recorded_endpoint = "EC50"
result = "10 to 25 µM"

[[record]]
molecule = "O=C(Nc1ncc(Cc2ccccc2Cl)s1)C1(c2ccc(N3CCOCC3)cc2)CC1 [Example 313]"
recorded_endpoint = "EC50"
result = "10 to 25 µM"

[[record]]
molecule = "O=C(Nc1ncc(C(NCCN2CCCC2)c2ccccc2Cl)s1)C1(c2ccc3c(c2)OCO3)CC1 (centres unmarked) [Example 406]"
recorded_endpoint = "EC50"
result = "< 10 µM"

